Catalogue of pIC50 values
system tested: human calcium receptor (Homo sapiens, UniProt P41180)
Construct: expressed in transfected cells
Sequence (P41180 20-1078): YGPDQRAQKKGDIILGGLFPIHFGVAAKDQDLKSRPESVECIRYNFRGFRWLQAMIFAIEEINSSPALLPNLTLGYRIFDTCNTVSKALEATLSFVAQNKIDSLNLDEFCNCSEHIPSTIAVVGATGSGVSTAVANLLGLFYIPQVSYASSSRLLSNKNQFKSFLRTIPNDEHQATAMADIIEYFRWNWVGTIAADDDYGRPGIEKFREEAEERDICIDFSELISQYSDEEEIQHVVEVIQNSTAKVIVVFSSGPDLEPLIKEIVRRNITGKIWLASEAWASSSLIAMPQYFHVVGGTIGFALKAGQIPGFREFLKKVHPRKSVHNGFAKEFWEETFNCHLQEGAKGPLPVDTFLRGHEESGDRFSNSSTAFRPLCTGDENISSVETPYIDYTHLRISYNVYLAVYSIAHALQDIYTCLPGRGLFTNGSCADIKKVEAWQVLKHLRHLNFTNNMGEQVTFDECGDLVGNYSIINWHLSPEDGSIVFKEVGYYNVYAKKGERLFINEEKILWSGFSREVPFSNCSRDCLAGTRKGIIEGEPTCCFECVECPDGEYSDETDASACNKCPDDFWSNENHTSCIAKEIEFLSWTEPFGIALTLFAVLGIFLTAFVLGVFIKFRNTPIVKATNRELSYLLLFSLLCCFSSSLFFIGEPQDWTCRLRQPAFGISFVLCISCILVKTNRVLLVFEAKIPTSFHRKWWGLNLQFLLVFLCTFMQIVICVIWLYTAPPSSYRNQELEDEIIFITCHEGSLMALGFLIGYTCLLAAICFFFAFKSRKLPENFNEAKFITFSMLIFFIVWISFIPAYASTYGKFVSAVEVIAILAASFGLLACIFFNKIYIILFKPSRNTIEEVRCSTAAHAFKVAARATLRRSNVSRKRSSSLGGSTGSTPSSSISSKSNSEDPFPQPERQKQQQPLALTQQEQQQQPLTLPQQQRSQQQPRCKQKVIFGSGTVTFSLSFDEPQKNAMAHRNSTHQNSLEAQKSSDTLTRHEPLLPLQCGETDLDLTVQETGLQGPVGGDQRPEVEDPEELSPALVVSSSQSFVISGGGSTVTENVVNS
assay name: Calcium Receptor Inhibitor Assay
Type: cell-based
settings: HEK 293 4.0–7 cells stably expressing the human calcium receptor; fluo-3; read-out: IC50 for blocking increases of intracellular Ca2+ elicited by extracellular Ca2+
Protocol: This example illustrates the use of the Calcium Receptor Inhibitor Assay. […] Res. 10 Suppl. […] Intracellular Ca^2+ was measured using fluo-3, a fluorescent calcium indicator. The procedure was as follows: 1. […] SPF-PCB was made up and stored at 4° C. […] The BSA-free fraction was used for diluting the cells in the cuvette for measurements of fluorescence. […] 6. […] Measurements of fluorescence were performed at 37° C. with constant stirring using a spectrofluorimeter. […]
pIC50: −log10 of the molar value. Counter-ions that a name gives are not always drawn.

Illustrative cases are given below, each with its answer.
compound="COc1ccc(CC(C)(C)NCC(O)COc2cccc(OC)c2)cc1 (centres unmarked) [Compound 38, Hydrochloride]" system_tested="human calcium receptor (Homo sapiens, UniProt P41180)" reported_measurement="> 6.00"
compound="COc1ccc(CC(C)(C)NCC(O)COc2cccc(Cl)c2C#N)cc1 (centres unmarked) [Compound 119, Hydrochloride]" system_tested="human calcium receptor (Homo sapiens, UniProt P41180)" reported_measurement="> 6.00"
compound="CCCc1ccc(OCC(O)CNC(C)(C)Cc2ccc(OC)cc2)cc1 (centres unmarked) [Compound 149, Hydrochloride]" system_tested="human calcium receptor (Homo sapiens, UniProt P41180)" reported_measurement="> 6.00"

Requested field: pIC50. Item: COc1ccc(CC(C)(C)NCC(O)COc2ccc(OC(F)(F)F)cc2)cc1 (centres unmarked) [Compound 152, Hydrochloride]
> 5.00

* * *

system tested: human calcium receptor (Homo sapiens, UniProt P41180)
Construct: expressed in transfected cells
assay name: Calcium Receptor Inhibitor Assay
Format: cell-based
settings: HEK 293 4.0–7 cells stably expressing the human calcium receptor; fluo-3; read-out: IC50 for blocking increases of intracellular Ca2+ elicited by extracellular Ca2+
pIC50: −log10 of the molar value. Counter-ions that a name gives are not always drawn.
assay endpoint: pIC50

molecule="CCCCCCCCCCOCC(O)CNC(C)(C)Cc1ccc(OC)cc1 (stereo not drawn)" system_tested="human calcium receptor (Homo sapiens, UniProt P41180)" reported_measurement="> 6.00"
molecule="COc1ccc(CC(C)(C)NCC(O)COc2ccccc2-c2ccccc2)cc1 (stereo not drawn)" system_tested="human calcium receptor (Homo sapiens, UniProt P41180)" reported_measurement="< 4.30"
molecule="COc1ccc(CC(C)(C)NCC(O)COc2ccc(C#N)cc2)cc1 (stereo not drawn) [Compound 161, Hydrochloride]" system_tested="human calcium receptor (Homo sapiens, UniProt P41180)" reported_measurement="> 5.00"
molecule="COc1ccc(CC(C)(C)NC[C@@H](O)COc2cccc3ccccc23)cc1 (single isomer, unassigned) [Compound 105, Hydrochloride]" system_tested="human calcium receptor (Homo sapiens, UniProt P41180)" reported_measurement="> 6.00"
molecule="COc1ccc(CC(C)(C)NCC(O)COC23CC4CC(CC(C4)C2)C3)cc1 (stereo not drawn)" system_tested="human calcium receptor (Homo sapiens, UniProt P41180)" reported_measurement="> 6.00"
molecule="CCCCCCCCCCCCOCC(O)CNC(C)(C)Cc1ccc(OC)cc1 (stereo not drawn)" system_tested="human calcium receptor (Homo sapiens, UniProt P41180)" reported_measurement="> 6.00"

Requested field: pIC50. Item: COc1ccc(CC(C)(C)NCC(O)COc2ccccc2OC)cc1 (stereo not drawn) [Compound 49, Hydrochloride]
> 5.00

Requested field: pIC50. Item: COc1ccc(CC(C)(C)NCC(O)COc2ccc(-c3ccccc3)cc2)cc1 (stereo not drawn)
< 4.30

Requested field: pIC50. Item: COc1ccc(CC(C)(C)NC[C@H](O)COc2cccc3ccccc23)cc1 (single isomer, unassigned) [Compound 106, Hydrochloride]
> 6.00

Requested field: pIC50. Item: COc1ccc(CC(C)(C)NCC(O)COc2cccc(F)c2)cc1 (stereo not drawn) [Compound 39, Hydrochloride]
> 5.00

Requested field: pIC50. Item: COc1ccc(CC(C)(C)NCC(O)COc2ccc(Cl)cc2Cl)cc1 (stereo not drawn) [Compound 138, Hydrochloride]
> 6.00

Requested field: pIC50. Item: COc1ccc(CC(C)(C)NCC(O)COc2cccc(Cl)c2Cl)cc1 (stereo not drawn) [Compound 136, Hydrochloride]
> 6.00

Requested field: pIC50. Item: CC(C)(Cc1ccc(F)cc1)NCC(O)COc1cccc2ccccc12 (stereo not drawn) [Compound 2, Hydrochloride]
> 5.00

This collection of values is drawn from patent US7202261B2.
